Biological target: T1, human RANK-L (human, UniProt O14788 140-317, limits assumed)
T1 construct: Soluble protein, used coated, biotinylated or labelled in ELISA, AlphaScreen, FMAT and Biacore; also called hRANK-L; soluble human RANK-L
T1 sequence (looked up): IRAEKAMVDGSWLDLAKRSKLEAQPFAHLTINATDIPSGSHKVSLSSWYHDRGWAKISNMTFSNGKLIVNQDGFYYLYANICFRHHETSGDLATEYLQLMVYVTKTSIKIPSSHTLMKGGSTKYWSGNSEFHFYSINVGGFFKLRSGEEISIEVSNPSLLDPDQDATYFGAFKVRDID
Assay: AlphaScreen, biotin-hRANK-L / RANK-huFc beads
Observable: IC50 (nM)

Binder: RANKL13basic (VHH, Humanized variant of RANKL13; also called RANKL13humbasic) VHH: EVQLVESGGGLVQPGGSLRLSCAASGRTFRSYPMGWFRQAPGKGREFVASITGSGGSTYYADSVKGRFTISRDNAKNTLYLQMNSLRPEDTAVYSCAAYIRPDTYLSRDYRKYDYWGQGTLVTVSS
Unit Descriptor: nM
IC50: 0.159

1: RANKL13hum3 (VHH, name in Kabat numbering, also called RANL13hum3) VHH: EVQLVESGGGLVQPGGSLRLSCAASGRTFRSYPMGWFRQAPGKGREFVSSITGSGGSTYYADSVKGRFTISRDNAKNTLYLQMNSLRPEDTAVYSCAAYIRPDTYLSRDYRKYDYWGQGTLVTVSS
2: RANKL18hum1 (VHH, name in Kabat numbering) VHH: EVQLVESGGGLVQPGGSLRLSCAASGFTFSRSAMGWFRQAPGKGREFVGFITGSGGTTYYGESVKGRFTISRDNAQNPVYLQMNSLRPEDTAVYYCGVYRRTYISSTYSESSEYDYWGQGTLVTVSS
3: RANKL18hum7 (VHH) VHH: EVQLVESGGGLVQPGGSLRLSCAASGRTFSRSAMGWFRQAPGKGREFVGFITGSGGTTYYADSVKGRFTISRDNAQNPLYLQMNSLRPEDTAVYYCAVYRRTYISSTYSESSEYDYWGQGTLVTVSS
Number of binders to sort: 3. Sort criterion: IC50, ascending. # format: label list in the order the request specifies 1, 3, 2
